Source listed as a melting point compilation (Tetko et al.; mined from patent text by program, amines drawn as free bases though some values may be those of a salt).

# melting point annotations

Examples with answers:
CN(C)Cc1c(-c2ccccn2)[nH]c2ncnc(Nc3cccc(Cl)c3)c12: 247 to 251 °C
CN(C)CCCNC(CC(=O)O)C(=O)OC1CCCCC1 (centres undefined): 150 to 152 °C
COc1cc(NC(=O)Nc2c(-c3ccccc3C)c3cc4c(cc3oc2=O)CCC4)cc(OC)c1O: 176 to 179 °C

Note to self: melting point recorded for O=C(O)COc1cccc2c1Cc1sc(S(=O)(=O)CCCC(c3ccccc3)c3ccccc3)nc1-2 was 97 to 101 °C

Note to self: melting point recorded for CC(=O)NCC1CN(c2ccc(N3CCC(O)(C(F)(F)F)C(C)C3)c(F)c2)C(=O)O1 (centres undefined) was 144 to 146 °C

Note to self: melting point recorded for COC(=O)C(=O)c1ccc(OCCOc2ccc3ccccc3c2)cc1F was 135 to 136 °C

Note to self: melting point recorded for N=C(NCC1(O)COc2ccccc2OC1)Nc1ccccc1 was 184 to 187 °C
